Target: Insulin receptor (Homo sapiens, UniProt P06213)
Sequence (P06213 28-758 limits assumed): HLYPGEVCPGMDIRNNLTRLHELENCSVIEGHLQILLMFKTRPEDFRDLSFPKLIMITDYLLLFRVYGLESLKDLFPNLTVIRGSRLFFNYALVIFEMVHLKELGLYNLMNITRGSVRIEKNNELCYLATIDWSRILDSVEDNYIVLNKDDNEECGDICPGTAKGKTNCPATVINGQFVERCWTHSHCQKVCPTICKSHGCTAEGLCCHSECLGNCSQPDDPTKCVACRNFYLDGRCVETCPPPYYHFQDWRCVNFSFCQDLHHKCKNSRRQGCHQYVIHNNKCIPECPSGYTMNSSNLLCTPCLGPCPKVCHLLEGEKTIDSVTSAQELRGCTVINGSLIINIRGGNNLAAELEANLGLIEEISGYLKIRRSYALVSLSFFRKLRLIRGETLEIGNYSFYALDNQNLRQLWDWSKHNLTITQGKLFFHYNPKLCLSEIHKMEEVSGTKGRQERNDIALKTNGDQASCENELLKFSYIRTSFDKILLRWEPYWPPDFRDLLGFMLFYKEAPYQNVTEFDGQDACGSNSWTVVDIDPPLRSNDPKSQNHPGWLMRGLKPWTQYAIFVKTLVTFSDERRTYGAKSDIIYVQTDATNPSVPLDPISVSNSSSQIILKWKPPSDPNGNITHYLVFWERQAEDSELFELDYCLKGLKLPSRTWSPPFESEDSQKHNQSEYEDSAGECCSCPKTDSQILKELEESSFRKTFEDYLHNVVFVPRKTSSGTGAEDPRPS
Sequence (P06213 763-1382 limits assumed): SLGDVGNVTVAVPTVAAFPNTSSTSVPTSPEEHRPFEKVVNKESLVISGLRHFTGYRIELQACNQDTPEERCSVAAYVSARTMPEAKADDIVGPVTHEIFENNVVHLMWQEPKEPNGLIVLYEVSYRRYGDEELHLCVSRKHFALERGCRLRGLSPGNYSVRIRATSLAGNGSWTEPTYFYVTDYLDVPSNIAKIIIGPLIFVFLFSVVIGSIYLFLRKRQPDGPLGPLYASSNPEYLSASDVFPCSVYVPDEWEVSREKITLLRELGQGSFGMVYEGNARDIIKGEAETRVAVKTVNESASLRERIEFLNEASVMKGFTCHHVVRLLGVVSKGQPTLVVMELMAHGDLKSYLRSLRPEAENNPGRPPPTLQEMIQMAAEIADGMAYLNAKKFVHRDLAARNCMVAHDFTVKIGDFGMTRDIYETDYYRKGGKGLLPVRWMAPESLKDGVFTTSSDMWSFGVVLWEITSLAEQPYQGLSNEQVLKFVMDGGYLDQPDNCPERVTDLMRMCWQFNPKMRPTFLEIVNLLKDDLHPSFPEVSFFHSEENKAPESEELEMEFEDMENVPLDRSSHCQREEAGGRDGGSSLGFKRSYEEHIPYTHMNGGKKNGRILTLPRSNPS
Test: Inhibition of INSR (unknown origin) at 1 uM relative to control
As shown below, each of these compounds has a reported inhibition value.
API: value field is a number in %; no unit string.

Solved entries (count: 3):
{"columns": ["compound.smiles", "inhibition / %"],
 "data": [
  ["C=CC(=O)Nc1cc(Nc2ncc(Cl)c(-c3cnn4ccccc34)n2)c(OC)cc1N1CC(N(C)C)C1", 98],
  ["COc1ccc(NC(=O)/C=C/CN(C)C)cc1Nc1ncc(Cl)c(-c2cnn3ccccc23)n1", 97],
  ["C=CC(=O)Nc1cc(Nc2ncc(Cl)c(-c3cnn4ccccc34)n2)c(OC)cc1N(C)CCN(C)C", 99]
]}

Turning to the following compound.
Field request: inhibition | item: C=CC(=O)Nc1cc(Nc2ncc(Cl)c(-c3cnn4ccccc34)n2)c(OC)cc1N1CC[C@@H](N(C)C)C1
98

----------
Biological target: Insulin receptor (Homo sapiens, UniProt P06213)
outcome.measure: pIC50
// pIC50: -log10(molar conc.)

# value lookup — system Insulin receptor (Homo sapiens, UniProt P06213), readout pIC50, item C=CC(=O)Nc1cc(Nc2nccc(-c3cn(C)c4ccccc34)n2)c(OC)cc1N(C)CCN(C)C [OSIMERTINIB]
6.04

----------
Assay: Intrinsic clearance in rat hepatocytes measured per 10^6 cells
Assay type: ADME, cell-based, Hepatocyte
Settings: read-out: CLH
outcome.measure: hepatocyte CLint (µL/min/1e6 cells)
API: value field is a number in µL/min/1e6 cells; no unit string.

{"columns": ["compound", "value.reported"],
 "data": [
  ["C=CC(=O)Nc1cc(Nc2nccc(-c3cn(C)c4ccccc34)n2)c(OC)cc1N(C)CCN(C)C [OSIMERTINIB]", 27]
]}

Turning to the following compound.
Field request: hepatocyte CLint | item: C=CC(=O)Nc1cc(Nc2nccc(-c3cn(C)c4ccccc34)n2)c(OC)cc1N(C)CCNC
50

----------
Assay: Oral bioavailability in Han Wistar rat at 5 mg/kg
Format: ADME, organism-based
Details: in vivo
outcome.measure: bioavailability

Solved entries (count: 2):
{"columns": ["compound.smiles", "bioavailability"],
 "data": [
  ["C=CC(=O)Nc1cc(Nc2nccc(-c3cn(C)c4ccccc34)n2)c(OC)cc1N(C)CCN(C)C", "45%"],
  ["C=CC(=O)Nc1cc(Nc2ncc(Cl)c(-c3cn(C)c4ccccc34)n2)c(OC)cc1N(C)CCN(C)C", "7%"]
]}

Turning to the following compound.
Field request: bioavailability | item: C=CC(=O)Nc1cc(Nc2ncc(C#N)c(-c3cn(C)c4ccccc34)n2)c(OC)cc1N(C)CCN(C)C
6%

----------
For reference, pIC50 measured on Voltage-gated inwardly rectifying potassium channel KCNH2 (Homo sapiens, UniProt Q12809):
// pIC50: -log10(molar conc.)

{"columns": ["compound.smiles", "pIC50"],
 "data": [
  ["C=CC(=O)Nc1cc(Nc2ncc(C#N)c(-c3cn(C)c4ccccc34)n2)c(OC)cc1N(C)CCN(C)C", 5.37]
]}

# value lookup — system Voltage-gated inwardly rectifying potassium channel KCNH2 (Homo sapiens, UniProt Q12809), readout pIC50, item C=CC(=O)Nc1cc(Nc2ncc(Cl)c(-c3cn(C)c4ccccc34)n2)c(OC)cc1N(C)CCN(C)C
5.13

----------
Tested on: NCI-H1975
Experiment: Antitumor activity against human NCI-H1975 cells harboring EGFR L858R/[…] double mutant xenografted in SCID mouse assessed as tumor growth inhibition at 10 mg/kg/day, po qd for 7 days relative to control
Format: functional
Conditions: Mus musculus, NCI-H1975, 168 h, read-out: TGI
As shown below, each of these compounds has a reported inhibition in vivo at 10 mg/kg/day value.
Please answer using a numeric value trailed by its unit.

Solved entries (count: 3):
{"columns": ["compound", "outcome.measure", "value.reported"],
 "data": [
  ["C=CC(=O)Nc1cc(Nc2ncc(Cl)c(-c3cnn4ccccc34)n2)c(OC)cc1N1CC(N(C)C)C1", "inhibition in vivo at 10 mg/kg/day", "113%"],
  ["C=CC(=O)Nc1cc(Nc2nccc(-c3c[nH]c4ccccc34)n2)c(OC)cc1N(C)CCN(C)C", "inhibition in vivo at 10 mg/kg/day", "123%"],
  ["C=CC(=O)Nc1cc(Nc2ncc(Cl)c(-c3cnn4ccccc34)n2)c(OC)cc1N(C)CCN(C)C", "inhibition in vivo at 10 mg/kg/day", "130%"]
]}

Turning to the following compound.
Field request: inhibition in vivo at 10 mg/kg/day | item: CN(C)C/C=C/C(=O)Nc1cc2c(Nc3ccc(F)c(Cl)c3)ncnc2cc1O[C@H]1CCOC1 [AFATINIB]
25%

----------
Experiment: Thermodynamic solubility of the compound at pH 7.4
Type: physicochemical
Settings: buffer, read-out: Therm_solubility
As shown below, each of these molecules has a reported solubility thermodynamic value.
API: value field is a number in µM; no unit string.

{"columns": ["molecule", "solubility thermodynamic [µM]"],
 "data": [
  ["C=CC(=O)Nc1cc(Nc2nccc(-c3c[nH]c4ccccc34)n2)c(OC)cc1N(C)CCN(C)C", 79],
  ["C=CC(=O)Nc1cc(Nc2ncc(C#N)c(-c3cn(C)c4ccccc34)n2)c(OC)cc1N(C)CCN(C)C", 57],
  ["C=CC(=O)Nc1cc(Nc2ncc(Cl)c(-c3c[nH]c4ccccc34)n2)c(OC)cc1N(C)CCN(C)C", 75],
  ["C=CC(=O)Nc1cc(Nc2nccc(-c3c[nH]c4ccccc34)n2)c(OC)cc1N1CCN(C)CC1", 828],
  ["C=CC(=O)Nc1cc(Nc2ncc(Cl)c(-c3cn(C)c4ccccc34)n2)c(OC)cc1N(C)CCN(C)C", 759]
]}

Field request: solubility thermodynamic | item: C=CC(=O)Nc1cc(Nc2nccc(-c3cn(C)c4ccccc34)n2)c(OC)cc1N(C)CCN(C)C [OSIMERTINIB]
7

Field request: solubility thermodynamic | item: C=CC(=O)Nc1cc(Nc2nccc(-c3cn(C)c4ccccc34)n2)c(OC)cc1N(C)CCNC
14
